# assayed_target: GABA-A receptor; alpha-1/beta-2/gamma-2 (Rattus norvegicus) (UniProt P18508+P62813+P63138)
# procedure_details: Electrophysiological effect on rat alpha-1-beta-2-gamma-2 GABA-A receptor subunits expressed in xenopus laevis oocytes at 0.1 uM
# Format: functional, cell-based
# conditions_used: Oocyte
The following molecules are listed with their measured Activity values.

molecule: C[C@]12CCC3C(CC[C@H]4C[C@H](O)CC[C@]34C)C1CCCN2C(=O)C(F)(F)F (stereo partly drawn)
Activity: 1.11

molecule: CC(=O)N1CCCC2C3CC[C@H]4C[C@](C)(O)CC[C@]4(C)C3CC[C@@]21C (stereo partly drawn)
Activity: 0.96

molecule: CC(=O)[C@H]1CC[C@H]2[C@@H]3CC[C@H]4C[C@H](O)CC[C@]4(C)[C@H]3CC[C@]12C
Activity: 1.26

molecule: C[C@]12CC[C@@H](O)C[C@H]1CC[C@@H]1[C@@H]2CC[C@]2(C)[C@@H](C(=O)CO)CC[C@@H]12
Activity: 1.21

molecule: C[C@@]1(O)CC[C@]2(C)C3CC[C@@]4(C)C(CCCN4C(=O)CO)C3CC[C@H]2C1 (stereo partly drawn)
Activity: 1

molecule: CC(=O)N1CCCC2C3CC[C@H]4C[C@H](O)CC[C@]4(C)C3CC[C@@]21C (stereo partly drawn)
Activity: 1.21

molecule: CC(=O)[C@H]1CC[C@H]2[C@@H]3CC[C@@H]4C[C@H](O)CC[C@]4(C)[C@H]3CC[C@]12C
Activity: 0.97

molecule: C[C@]12CCC3C(CC[C@H]4C[C@H](O)CC[C@]34C)C1CCCN2C(=O)CO (stereo partly drawn)
Activity: 1.17

====

The following compounds are listed with their measured Activity values.
# assayed_target: GABA-A receptor; alpha-1/beta-2/gamma-2 (Rattus norvegicus) (UniProt P18508+P62813+P63138)
# procedure_details: Electrophysiological effect on rat alpha-1-beta-2-gamma-2 GABA-A receptor subunits expressed in xenopus laevis oocytes at 10 uM
# Type: functional, cell-based
# conditions_used: Oocyte

compound: C[C@]12CC[C@@H](O)C[C@H]1CC[C@@H]1[C@@H]2CC[C@]2(C)[C@@H](C(=O)CO)CC[C@@H]12
Activity: 5.43
//
compound: CC(=O)[C@H]1CC[C@H]2[C@@H]3CC[C@@H]4C[C@H](O)CC[C@]4(C)[C@H]3CC[C@]12C
Activity: 4.3
//
compound: CC(=O)N1CCCC2C3CC[C@@H]4C[C@H](O)CC[C@]4(C)C3CC[C@@]21C (some centres not stated)
Activity: 1.18
//
compound: CC(=O)N1CCCC2C3CC[C@H]4C[C@H](O)CC[C@]4(C)C3CC[C@@]21C (some centres not stated)
Activity: 3.74
//
compound: CC(=O)N1CCCC2C3CC[C@H]4C[C@](C)(O)CC[C@]4(C)C3CC[C@@]21C (some centres not stated)
Activity: 1.99
//
compound: C[C@]12CC[C@@H](O)C[C@@H]1CC[C@@H]1[C@@H]2CC[C@]2(C)[C@@H](C(=O)CO)CC[C@@H]12
Activity: 11.8
//
compound: C[C@]12CCC3C(CC[C@@H]4C[C@H](O)CC[C@]34C)C1CCCN2C(=O)C(F)(F)F (some centres not stated)
Activity: 1.12
//
compound: C[C@@]1(O)CC[C@]2(C)C3CC[C@@]4(C)C(CCCN4C(=O)CO)C3CC[C@H]2C1 (some centres not stated)
Activity: 6.5
//
compound: CC(=O)[C@H]1CC[C@H]2[C@@H]3CC[C@H]4C[C@H](O)CC[C@]4(C)[C@H]3CC[C@]12C
Activity: 9.65
//
compound: C[C@]12CCC3C(CC[C@H]4C[C@H](O)CC[C@]34C)C1CCCN2C(=O)C(F)(F)F (some centres not stated)
Activity: 10.1
//
compound: C[C@]12CCC3C(CC[C@H]4C[C@H](O)CC[C@]34C)C1CCCN2C(=O)CO (some centres not stated)
Activity: 8.09
//
compound: C[C@]12CCC3C(CC[C@@H]4C[C@H](O)CC[C@]34C)C1CCCN2C(=O)CO (some centres not stated)
Activity: 3.87

====

# assayed_target: GABA-A receptor; alpha-1/beta-2/gamma-2 (Rattus norvegicus) (UniProt P18508+P62813+P63138)
# procedure_details: Electrophysiological effect on rat alpha-1-beta-2-gamma-2 GABA-A receptor subunits expressed in xenopus laevis oocytes at 0.1 uM
# Assay type: functional, cell-based
# conditions_used: Oocyte
The following molecules are listed with their measured Activity values.

molecule: C[C@]12CCC3C(CC[C@@H]4C[C@H](O)CC[C@]34C)C1CCCN2C(=O)C(F)(F)F (some centres undefined)
assayed_target: GABA-A receptor; alpha-1/beta-2/gamma-2 (Rattus norvegicus) (UniProt P18508+P62813+P63138)
Activity: 0.98
//
molecule: C[C@]12CCC3C(CC[C@@H]4C[C@H](O)CC[C@]34C)C1CCCN2C(=O)CO (some centres undefined)
assayed_target: GABA-A receptor; alpha-1/beta-2/gamma-2 (Rattus norvegicus) (UniProt P18508+P62813+P63138)
Activity: 1.36
//
molecule: CC(=O)N1CCCC2C3CC[C@@H]4C[C@H](O)CC[C@]4(C)C3CC[C@@]21C (some centres undefined)
assayed_target: GABA-A receptor; alpha-1/beta-2/gamma-2 (Rattus norvegicus) (UniProt P18508+P62813+P63138)
Activity: 1.37
//
molecule: C[C@]12CC[C@@H](O)C[C@@H]1CC[C@@H]1[C@@H]2CC[C@]2(C)[C@@H](C(=O)CO)CC[C@@H]12
assayed_target: GABA-A receptor; alpha-1/beta-2/gamma-2 (Rattus norvegicus) (UniProt P18508+P62813+P63138)
Activity: 1.3

====

# assayed_target: GABA-A receptor; alpha-1/beta-2/gamma-2 (Rattus norvegicus) (UniProt P18508+P62813+P63138)
# procedure_details: Electrophysiological effect on rat alpha-1-beta-2-gamma-2 GABA-A receptor subunits expressed in xenopus laevis oocytes at 10 uM in the absence of GABA
# Type: functional, cell-based
# conditions_used: Oocyte

compound: CC(=O)N1CCCC2C3CC[C@@H]4C[C@H](O)CC[C@]4(C)C3CC[C@@]21C (some centres not stated)
Activity: 0.01

compound: CC(=O)[C@H]1CC[C@H]2[C@@H]3CC[C@@H]4C[C@H](O)CC[C@]4(C)[C@H]3CC[C@]12C
Activity: 0.01

compound: CC(=O)N1CCCC2C3CC[C@H]4C[C@](C)(O)CC[C@]4(C)C3CC[C@@]21C (some centres not stated)
Activity: 0.05

compound: CC(=O)[C@H]1CC[C@H]2[C@@H]3CC[C@H]4C[C@H](O)CC[C@]4(C)[C@H]3CC[C@]12C
Activity: 0.37

compound: CC(=O)N1CCCC2C3CC[C@H]4C[C@H](O)CC[C@]4(C)C3CC[C@@]21C (some centres not stated)
Activity: 0.05

compound: C[C@]12CC[C@@H](O)C[C@H]1CC[C@@H]1[C@@H]2CC[C@]2(C)[C@@H](C(=O)CO)CC[C@@H]12
Activity: 0.19

compound: C[C@]12CCC3C(CC[C@H]4C[C@H](O)CC[C@]34C)C1CCCN2C(=O)C(F)(F)F (some centres not stated)
Activity: 0.5

compound: C[C@]12CC[C@@H](O)C[C@@H]1CC[C@@H]1[C@@H]2CC[C@]2(C)[C@@H](C(=O)CO)CC[C@@H]12
Activity: 1.67

compound: C[C@@]1(O)CC[C@]2(C)C3CC[C@@]4(C)C(CCCN4C(=O)CO)C3CC[C@H]2C1 (some centres not stated)
Activity: 0.2

compound: C[C@]12CCC3C(CC[C@@H]4C[C@H](O)CC[C@]34C)C1CCCN2C(=O)CO (some centres not stated)
Activity: 0.1

compound: C[C@]12CCC3C(CC[C@H]4C[C@H](O)CC[C@]34C)C1CCCN2C(=O)CO (some centres not stated)
Activity: 0.49

compound: C[C@]12CCC3C(CC[C@@H]4C[C@H](O)CC[C@]34C)C1CCCN2C(=O)C(F)(F)F (some centres not stated)
Activity: 0.02

====

# assayed_target: GABA-A receptor; alpha-1/beta-2/gamma-2 (Rattus norvegicus) (UniProt P18508+P62813+P63138)
# procedure_details: Electrophysiological effect on rat alpha-1-beta-2-gamma-2 GABA-A receptor subunits expressed in xenopus laevis oocytes at 1 uM
# Type: functional, cell-based
# conditions_used: Oocyte
The following compounds are listed with their measured Activity values.
quantity_name: Activity

compound: CC(=O)N1CCCC2C3CC[C@@H]4C[C@H](O)CC[C@]4(C)C3CC[C@@]21C (stereo partly drawn)
quantity_name: Activity
value_measured: 1.04
//
compound: C[C@]12CCC3C(CC[C@@H]4C[C@H](O)CC[C@]34C)C1CCCN2C(=O)C(F)(F)F (stereo partly drawn)
quantity_name: Activity
value_measured: 0.96
//
compound: CC(=O)N1CCCC2C3CC[C@H]4C[C@](C)(O)CC[C@]4(C)C3CC[C@@]21C (stereo partly drawn)
quantity_name: Activity
value_measured: 1.04
//
compound: CC(=O)[C@H]1CC[C@H]2[C@@H]3CC[C@H]4C[C@H](O)CC[C@]4(C)[C@H]3CC[C@]12C [BREXANOLONE]
quantity_name: Activity
value_measured: 3.89
//
compound: C[C@]12CCC3C(CC[C@H]4C[C@H](O)CC[C@]34C)C1CCCN2C(=O)CO (stereo partly drawn)
quantity_name: Activity
value_measured: 1.73
//
compound: C[C@@]1(O)CC[C@]2(C)C3CC[C@@]4(C)C(CCCN4C(=O)CO)C3CC[C@H]2C1 (stereo partly drawn)
quantity_name: Activity
value_measured: 1.22
//
compound: C[C@]12CC[C@@H](O)C[C@@H]1CC[C@@H]1[C@@H]2CC[C@]2(C)[C@@H](C(=O)CO)CC[C@@H]12
quantity_name: Activity
value_measured: 4.55
//
compound: C[C@]12CC[C@@H](O)C[C@H]1CC[C@@H]1[C@@H]2CC[C@]2(C)[C@@H](C(=O)CO)CC[C@@H]12
quantity_name: Activity
value_measured: 2.37

Entry source: ChEMBL document CHEMBL1133108
